Target: recombinant human cytosolic PEPCK (GST-PEPCK) (Homo sapiens)
Sequence (P35558 whole entry): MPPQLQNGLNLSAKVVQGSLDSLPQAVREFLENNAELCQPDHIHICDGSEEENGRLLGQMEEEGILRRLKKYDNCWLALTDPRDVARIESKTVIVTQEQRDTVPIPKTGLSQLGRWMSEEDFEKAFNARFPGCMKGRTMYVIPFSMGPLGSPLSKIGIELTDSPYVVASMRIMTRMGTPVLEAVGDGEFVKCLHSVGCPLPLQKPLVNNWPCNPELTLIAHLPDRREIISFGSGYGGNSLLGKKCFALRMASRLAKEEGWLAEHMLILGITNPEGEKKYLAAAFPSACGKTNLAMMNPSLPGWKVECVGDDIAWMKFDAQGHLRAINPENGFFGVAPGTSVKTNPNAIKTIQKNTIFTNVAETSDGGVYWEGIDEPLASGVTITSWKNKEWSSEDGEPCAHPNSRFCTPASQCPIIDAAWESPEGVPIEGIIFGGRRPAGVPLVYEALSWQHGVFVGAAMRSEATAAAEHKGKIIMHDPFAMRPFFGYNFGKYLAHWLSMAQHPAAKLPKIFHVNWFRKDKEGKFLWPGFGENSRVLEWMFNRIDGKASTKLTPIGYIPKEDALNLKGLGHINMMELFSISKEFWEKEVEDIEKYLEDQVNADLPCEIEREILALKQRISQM
Test: PEPCK enzyme assay (coupled to pyruvate kinase / lactate dehydrogenase, absorbance at 340 nm)
Conditions: in vitro PEPCK enzymatic assay; GTP at 3 fold and OAA at 10 fold Km; final DMSO 10%; room temperature, twenty minutes
pIC50: −log10 of the molar value.
assayEndpoint: pIC50

{"compound": "CC(=O)Nc1nc(C)c(S(=O)(=O)Nc2ccc(Cc3nc4c([nH]3)c(=O)n(Cc3ccccc3F)c(=O)n4CC3CC3)cc2)s1 [Example 10]", "pIC50": 6.66}

(A) CCCCn1c(=O)n(Cc2ccccc2)c(=O)c2[nH]c(Cc3ccc(NS(C)(=O)=O)cc3)nc21 [Example 24]
(B) Cc1nn(C)c(Cl)c1S(=O)(=O)Nc1ccc(Cc2nc3c([nH]2)c(=O)n(Cc2ccccc2F)c(=O)n3CC2CC2)cc1 [Example 1]
Q) Param metric = pIC50; output whichever of A , B has the minimum value. Answer by stating the label of the chosen item.
A) A
